Compiled IC50 measurements on Fibroblast growth factor receptor 1 (Homo sapiens, UniProt P11362) taken from the literature.
recordedMetric: IC50

CC1COC(=O)N1Cc1cc2c(nc1C=O)N(C(=O)Nc1cc(S[C@@H]3CCOC3)c(C#N)cn1)CCC2 (stereo partly shown) | > 10 µM
CO[C@H]1CCN(Cc2cc3c(nc2C=O)N(C(=O)Nc2cc(N[C@@H]4COC[C@H]4OC)c(C#N)cn2)CCC3)C1=O | > 10 µM
COCCNc1cc(NC(=O)N2CCCc3cc(CN(C)C(=O)[C@H]4CCCN4C)c(C=O)nc32)ncc1C#N | > 10 µM
C[C@@H](Oc1ccc2[nH]nc(/C=C(\F)c3ccc(OCC4CCOCC4)nc3)c2c1)c1c(Cl)cncc1Cl | 0.05 to 1 µM
C[C@@H](Oc1ccc2[nH]nc(/C=C(\F)c3ccc(CN4CCN(CCO)CC4)nc3)c2c1)c1c(Cl)cncc1Cl | ≤ 0.01 µM
COc1cc(OC)c(Cl)c(-c2ncc3c(-c4ccc5c(c4)CCO5)n[nH]c3n2)c1Cl | < 0.1 µM
C[C@@H](Oc1ccc2[nH]nc(/C=C(\F)c3ccc(O[C@H]4CCOC4)nc3)c2c1)c1c(Cl)cncc1Cl | 0.05 to 1 µM
C=CC(=O)Nc1cccc(C)c1Nc1ccc(/C(F)=C/c2c(Cl)c(OC)cc(OC)c2Cl)cn1 | > 10 µM
Cn1cc(-c2cnc3c(c2)ncn3-c2cc(NS(=O)(=O)NC3CC3)cc(-c3ccc(F)cc3F)c2)cn1 | 0.014 µM
COc1cc(OC)c(F)c(CCc2cnc3[nH]c(-c4cnn(C)c4)cc3n2)c1F | < 0.1 µM
COc1cc(Nc2ncnc(Nc3cccc4ccccc34)n2)cc(OC)c1OCCN1CCOCC1 | 0.796 to 4.78 µM
C[C@H](Oc1ccc2[nH]nc(/C=C(\F)c3ccc(CN4CCC(CO)CC4)nc3)c2c1)c1c(Cl)cncc1Cl | 0.01 to 0.05 µM
COc1cc(OC)c(F)c(N2Cc3cnc(N)c(-c4cn[nH]c4)c3N(C)C2=O)c1F | < 0.1 µM
COc1cc2nccc(Oc3ccc(NC(=S)NC4CC4)c(Cl)c3)c2cc1C(=O)NCC(F)F | 0.2 to 1 µM
C=CC(=O)Nc1cccc(C)c1Nc1ncc2cc(-c3c(Cl)c(OC)cc(OC)c3Cl)c3nccn3c2n1 | > 0.5 µM
O=C(NCc1ccco1)Nc1cc(-n2cccn2)cc(-n2cnc3cc(-n4cccn4)ccc32)c1 | 0.061 µM
